# Test system: µP-hPSC colonies (H9) under mesoendoderm induction
# measurement-description: µP-hPST: mesoendoderm pattern disruption in µP-hPSC colonies and two-step teratogen classification
# condition-summary: two-step classification rule
measured-metric: Teratogenicity in µP-hPST

* O=c1[nH]cc(F)c(=O)[nH]1 | TER
* O=C1O[C@H]([C@@H](O)CO)C(O)=C1O | NON
* CS(=O)(=O)OCCCCOS(C)(=O)=O | TER
* CCN(CC)CCNC(=O)c1c(C)[nH]c(/C=C2\C(=O)Nc3ccc(F)cc32)c1C | TER
* Cc1ncc(C[n+]2csc(CCO)c2C)c(N)n1 | NON
* Cn1cc[nH]c1=S | TER
* CCN(CC)CCNC(=O)c1cc(Cl)c(N)cc1OC [Metoclopramide] | NON
* COc1cc2c(Nc3ccc(Br)cc3F)ncnc2cc1OCC1CCN(C)CC1 | TER
* COc1cccc2c1C(=O)c1c(O)c3c(c(O)c1C2=O)C[C@@](O)(C(=O)CO)C[C@@H]3O[C@H]1C[C@H](N)[C@H](O)[C@H](C)O1 | TER
